tested on: 282377-053-R-J1-PDC complex spheroids, viability; assay: Anticancer human tumor 282377-053-R-J1-PDC patient-derived colon adenocarcinoma cell line growth inhibition [GQUAD]; conditions: second compound 0.316 µM; first compound 3.16 µM; hits give low values;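 further: spheroids exposed to compounds for 7 days before readout; percent of vehicle DMSO control viability with 100% = untreated-like growth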
measurement_type: viability, T/C (%)

molecule	readout_unit	quantitative_result
CC(C)n1c(=O)n(C)c2cnc3cc(F)c(-c4ccc(OCCCN5CCCCC5)nc4)cc3c21 + Cc1cnc(CNC(=O)c2c(=O)c3ccc(N4CCCN(C)CC4)nc3n3c2sc2ccccc23)cn1	%	78.5
COc1cc(C2c3cc4c(cc3C(OC3OC5COC(C)OC5C(O)C3O)C3COC(=O)C23)OCO4)cc(OC)c1O (configuration not stated) + Cc1cnc(CNC(=O)c2c(=O)c3ccc(N4CCCN(C)CC4)nc3n3c2sc2ccccc23)cn1	%	66.4
C=CCn1c(=O)c2cnc(Nc3ccc(N4CCN(C)CC4)cc3)nc2n1-c1cccc(C(C)(C)O)n1 + CN(C)c1ccc(Nc2c3ccc(NC(=O)CCN4CCCC4)cc3nc3cc(NC(=O)CCN4CCCC4)ccc23)cc1	%	26.5
O=c1[nH]cc(F)c(=O)[nH]1 + CN(C)c1ccc(Nc2c3ccc(NC(=O)CCN4CCCC4)cc3nc3cc(NC(=O)CCN4CCCC4)ccc23)cc1	%	67.8
O=C(c1cc(Cc2n[nH]c(=O)c3ccccc23)ccc1F)N1CCN(C(=O)C2CC2)CC1 + CN(C)c1ccc(Nc2c3ccc(NC(=O)CCN4CCCC4)cc3nc3cc(NC(=O)CCN4CCCC4)ccc23)cc1	%	91.2
CC1COCCN1c1cc(-c2ccnn2C)c2ccnc(-c3ccn[nH]3)c2n1 (configuration not stated) + Cc1cnc(CNC(=O)c2c(=O)c3ccc(N4CCCN(C)CC4)nc3n3c2sc2ccccc23)cn1	%	21.5
Nc1ccn(C2OC(CO)C(O)C2(F)F)c(=O)n1 (configuration not stated) + CN(C)c1ccc(Nc2c3ccc(NC(=O)CCN4CCCC4)cc3nc3cc(NC(=O)CCN4CCCC4)ccc23)cc1	%	33.7
CC(=O)O[C@H]1C(=O)[C@@]2(C)[C@H]([C@H](OC(=O)c3ccccc3)[C@]3(O)C[C@H](OC(=O)[C@H](O)[C@@H](NC(=O)c4ccccc4)c4ccccc4)C(C)=C1C3(C)C)[C@]1(OC(C)=O)CO[C@@H]1C[C@@H]2O + Cc1[nH]c2ccc(F)cc2c1-c1nc2c3cccnc3c3ncccc3c2[nH]1	%	0.05
CC1COCCN1c1cc(-c2ccnn2C)c2ccnc(-c3ccn[nH]3)c2n1 (configuration not stated) + CN(C)c1ccc(Nc2c3ccc(NC(=O)CCN4CCCC4)cc3nc3cc(NC(=O)CCN4CCCC4)ccc23)cc1	%	38.5
CC(=O)O[C@H]1C(=O)[C@@]2(C)[C@H]([C@H](OC(=O)c3ccccc3)[C@]3(O)C[C@H](OC(=O)[C@H](O)[C@@H](NC(=O)c4ccccc4)c4ccccc4)C(C)=C1C3(C)C)[C@]1(OC(C)=O)CO[C@@H]1C[C@@H]2O + Cc1cnc(CNC(=O)c2c(=O)c3ccc(N4CCCN(C)CC4)nc3n3c2sc2ccccc23)cn1	%	33.7
COc1ncnc(C2CC2)c1-c1ncc2cnn(Cc3ccc(-c4nc(C(F)(F)F)cn4C(C)C)cc3)c2n1 + CN(C)c1ccc(Nc2c3ccc(NC(=O)CCN4CCCC4)cc3nc3cc(NC(=O)CCN4CCCC4)ccc23)cc1	%	87.6
O=C(NO)c1cnc(N2CCN(S(=O)(=O)c3ccc4ccccc4c3)CC2)nc1 + Cc1cnc(CNC(=O)c2c(=O)c3ccc(N4CCCN(C)CC4)nc3n3c2sc2ccccc23)cn1	%	0.04
